Kindly supply the reported pEC50 values for the records listed here.
- Measurement Target: STING (Homo sapiens, UniProt Q86WV6, G230A/H232R/R293Q/R71H)
- Sequence (Q86WV6 whole entry R71H/G230A/H232R/R293Q): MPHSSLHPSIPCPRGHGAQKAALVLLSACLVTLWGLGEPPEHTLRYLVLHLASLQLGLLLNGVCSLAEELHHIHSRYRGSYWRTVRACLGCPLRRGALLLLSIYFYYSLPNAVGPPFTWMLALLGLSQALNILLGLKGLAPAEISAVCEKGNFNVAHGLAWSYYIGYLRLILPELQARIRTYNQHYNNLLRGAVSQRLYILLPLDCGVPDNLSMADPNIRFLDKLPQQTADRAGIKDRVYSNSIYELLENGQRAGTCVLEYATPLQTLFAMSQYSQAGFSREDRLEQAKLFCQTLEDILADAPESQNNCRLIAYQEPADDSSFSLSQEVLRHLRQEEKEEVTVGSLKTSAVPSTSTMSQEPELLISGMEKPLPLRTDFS
- Method: STING reporter assay: THP1-Dual KO-IFNAR2 cells stimulated with 2′3′cGAMP, luciferase reporter activity
- Type: cell-based
- Test Settings: 15 μM 2′3′cGAMP, 24h, numeric bounds
pEC50: −log10 of the molar value.

Answered cases to consult:
CC(=O)c1c[nH]c2cc(NC(=O)Nc3ccc(C(F)(F)F)cc3)ccc12 :: < 4.52
O=C(NCc1ccc(OCC(F)(F)F)nc1)Nc1ccc2[nH]ccc2c1 :: < 4.52
CC(C)c1ccc(NC(=O)Nc2ccc3[nH]ccc3c2)cc1 :: < 4.52
FC(F)(F)COc1ccnc(Nc2ccc3cc[nH]c3c2)n1 :: < 4.52
Cc1ccc(CNC(=O)Nc2ccc3[nH]ccc3c2)cc1 :: < 4.52

Could I get pEC50 for every one of these entries?
1. Cc1cc(C)nc(NC(=O)Nc2ccc3[nH]ccc3c2)c1
2. O=C(NCCc1ccccc1)Nc1ccc2cc[nH]c2c1
3. c1ccc(-c2cccc(Nc3ccc4cc[nH]c4c3)n2)cc1
4. COC(=O)c1ccc(Nc2ccc3cc[nH]c3c2)nc1OC
5. O=C(Nc1ccc2c(c1)CCC2)Nc1ccc2[nH]ccc2c1
6. Cn1ccc2cc(NC(=O)Nc3ccc(C(F)(F)F)cc3)ccc21
7. CCCCC1CCC(NC(=O)Nc2ccc3cc(C)[nH]c3c2)CC1 (stereo not shown)
8. CC(C)(C)c1cc(NC(=O)Nc2ccc3[nH]ccc3c2)on1

RESULT:
1: < 4.52; 2: < 4.52; 3: < 4.69; 4: < 4.52; 5: < 4.52; 6: < 4.00; 7: < 4.00; 8: < 4.52

Could I get pEC50 for every one of these entries?
1. N#Cc1ccc(NC(=O)Nc2ccc3[nH]ccc3c2)cc1
2. c1cnc(Nc2ccc3cc[nH]c3c2)c(C2CC2)c1
3. N#Cc1cc(F)cc(NC(=O)Nc2ccc3cc[nH]c3c2)c1
4. O=C(Nc1ccc2cc[nH]c2c1)Nc1cnccn1
5. Cn1cc(-c2cc(NC(=O)Nc3ccc(C(F)(F)F)cc3)cc3[nH]ccc23)cn1

RESULT:
1: < 4.52; 2: < 4.52; 3: < 4.52; 4: < 4.52; 5: < 4.52

QUERY: Reported pEC50, compound O=C(Nc1cnc2cc(C(F)(F)F)ccc2c1)Nc1ccc2[nH]ccc2c1 : ____
RESULT: < 4.52

---

- Measurement Target: STING (Homo sapiens, UniProt Q86WV6, G230A/H232R/R293Q/R71H)
- Method: STING reporter assay: THP1-Dual KO-IFNAR2 cells stimulated with 2′3′cGAMP, luciferase reporter activity
- Format: cell-based
- Test Settings: 15 μM 2′3′cGAMP, 24h, class symbols
pEC50: −log10 of the molar value.
Kindly supply the reported pEC50 values for the records listed here.

Answered cases to consult:
Cc1cc2ccc(C(F)(F)F)cc2nc1Nc1ccc2cc[nH]c2c1 :: 6.00 to 6.70
CN(C)S(=O)(=O)c1ccc(NC(=O)Nc2ccc3cc[nH]c3c2)cc1 :: 4.00 to 5.30
FC(F)(F)c1ccc2ncc(Nc3ccc4cc[nH]c4c3)nc2c1 :: 5.30 to 6.00

Could I get pEC50 for every one of these entries?
1. O=C(Nc1ccc(C(F)(F)F)cc1)Nc1cc(N2CCCC(Cn3cncn3)C2)c2cc[nH]c2c1 (stereo not drawn)
2. CCCCCCCCc1ccc(NC(=O)Nc2ccc3cc[nH]c3c2)cc1
3. Cc1cc2cc[nH]c2cc1NC(=O)Nc1ccc(C(F)(F)F)cc1
4. Clc1cc(Cl)c2ccc(Nc3ccc4cc[nH]c4c3)nc2c1
5. FC(F)(F)c1ccc2ccc(Nc3ccc4cc[nH]c4c3)cc2n1

RESULT:
1: 4.00 to 5.30; 2: 6.00 to 6.70; 3: 4.00 to 5.30; 4: 6.00 to 6.70; 5: 5.30 to 6.00

QUERY: Reported pEC50, molecule O=C(Nc1ccc(C(F)(F)F)cc1)Nc1cc(F)c2cc[nH]c2c1 : ____
RESULT: 6.00 to 6.70

---

- Measurement Target: STING (Homo sapiens, UniProt Q86WV6, G230A/H232R/R293Q/R71H)
- Method: STING reporter assay: THP1-Dual KO-IFNAR2 cells stimulated with 2′3′cGAMP, luciferase reporter activity
- Type: cell-based
- Test Settings: 15 μM 2′3′cGAMP, 24h, class symbols
Observable: EC50

Answered cases to consult:
CC(C)(C)c1cccc(Nc2ccc3cc[nH]c3c2)n1 :: 1000 to 5000 nM
Cc1nc(Nc2ccc3cc[nH]c3c2)ccc1OC(C)C :: 1000 to 5000 nM
N#Cc1cc2ccc(NC(=O)Nc3ccc(C(F)(F)F)cc3)cc2[nH]1 :: 5000 to 100000 nM
FC(F)(F)c1c(Cl)ccc2nc(Nc3ccc4cc[nH]c4c3)ccc12 :: 200 to 1000 nM

Okay, now this compound:
QUERY: Field: EC50 (STING (Homo sapiens, UniProt Q86WV6, G230A/H232R/R293Q/R71H)). Entry: O=C(NCCc1c[nH]c2cc(OC(F)(F)F)ccc12)Nc1ccc2cc[nH]c2c1
RESULT: 200 to 1000 nM

---

- Measurement Target: STING (Homo sapiens, UniProt Q86WV6, G230A/H232R/R293Q/R71H)
- Method: STING reporter assay: THP1-Dual KO-IFNAR2 cells stimulated with 2′3′cGAMP, luciferase reporter activity
- Assay type: cell-based
- Test Settings: 15 μM 2′3′cGAMP, 24h, class symbols
Observable: EC50

Answered cases to consult:
O=C(NCCCc1cncc(C(F)(F)F)c1)Nc1ccc2cc[nH]c2c1 :: 1 to 5 µM
O=C(NCCN1CCC(Cc2ccccc2)CC1)Nc1ccc2cc[nH]c2c1 :: 5 to 100 µM
O=C(NCCOc1ccccc1C(F)(F)F)Nc1ccc2cc[nH]c2c1 :: 1 to 5 µM
O=C(NCCc1ccccc1Cl)Nc1ccc2cc[nH]c2c1 :: 1 to 5 µM
O=C(Nc1cccc(S(=O)(=O)C(F)(F)F)c1)Nc1ccc2cc[nH]c2c1 :: 1 to 5 µM

Could I get EC50 for every one of these entries?
1. CCCCCCCCCCCCCCCCNC(=O)Nc1ccc2cc[nH]c2c1
2. Cc1ccc(Nc2ccc3cc[nH]c3c2)nc1C(F)(F)F
3. O=C(Nc1cccc(OC(F)F)c1)Nc1ccc2[nH]ccc2c1
4. CCOCc1ccc(Nc2ccc3cc[nH]c3c2)nc1
5. CCc1ccc2ccc(Nc3ccc4cc[nH]c4c3)nc2c1

RESULT:
["0.2 to 1 µM", "1 to 5 µM", "5 to 100 µM", "5 to 100 µM", "1 to 5 µM"]

Could I get EC50 for every one of these entries?
1. O=C(NCc1ccc(Cl)c(C(F)(F)F)c1)Nc1ccc2cc[nH]c2c1
2. CC(=O)n1cc(C#N)c2ccc(NC(=O)Nc3ccc(C(F)(F)F)cc3)cc21
3. CC(C)(C)c1ccnc(Nc2ccc3cc[nH]c3c2)c1
4. CCC(NC(=O)Nc1ccc2cc[nH]c2c1)c1cccc(C(F)(F)F)c1 (stereo not drawn)

RESULT:
1. 1 to 5 µM
2. 1 to 5 µM
3. 5 to 100 µM
4. 1 to 5 µM

Could I get EC50 for every one of these entries?
1. O=C(Nc1ccc(C2CC(F)(F)C2)c(F)c1)Nc1ccc2cc[nH]c2c1
2. O=C(NCc1cc(Cl)cc(C(F)(F)F)c1)Nc1ccc2c(F)c[nH]c2c1
3. CCC(NC(=O)Nc1ccc2[nH]ccc2c1)c1cccc(C(F)(F)F)c1 (stereo not drawn)
4. O=c1c(Nc2ccc(C(F)(F)F)cc2)c(Nc2ccc3[nH]ccc3c2)c1=O
5. Cc1cc2cc[nH]c2cc1Nc1ccc2ccc(C(F)(F)F)cc2n1

RESULT:
0.2 to 1 µM
5 to 100 µM
5 to 100 µM
1 to 5 µM
5 to 100 µM

Could I get EC50 for every one of these entries?
1. O=C(Nc1ccc(C(F)(F)F)cc1)Nc1cc2[nH]ccc2cn1
2. c1cc2ccc(Nc3ccc4ccc(C5CCC5)cc4n3)cc2[nH]1
3. CN(C)Cc1cc(NC(=O)Nc2ccc(C(F)(F)F)cc2)cc2[nH]ccc12

RESULT:
5 to 100 µM
1 to 5 µM
5 to 100 µM

---

Kindly supply the reported EC50 values for the records listed here.
- Measurement Target: STING (Homo sapiens, UniProt Q86WV6, G230A/H232R/R293Q/R71H)
- Method: STING reporter assay: THP1-Dual KO-IFNAR2 cells stimulated with 2′3′cGAMP, luciferase reporter activity
- Format: cell-based
- Test Settings: 15 μM 2′3′cGAMP, 24h, class symbols

O=C(Nc1ccc(C(F)(F)F)cc1)Nc1cc(-c2cn[nH]c2)c2cc[nH]c2c1 [Compound 167] :: 1 to 5 µM
CCCCc1cccc(NC(=O)Nc2ccc3cc[nH]c3c2)c1 [Compound 270] :: 0.04 to 0.2 µM
Clc1ccc2ccc(Nc3ccc4cc[nH]c4c3)nc2c1 [Compound 589] :: 0.2 to 1 µM
O=C(Nc1ccc(Oc2c(F)cccc2F)cc1)Nc1ccc2cc[nH]c2c1 [Compound 160] :: 1 to 5 µM

Could I get EC50 for every one of these entries?
1. Cc1ccccc1CNC(=O)Nc1ccc2cc[nH]c2c1 [Compound 224]
2. Cc1cc2ccc(Nc3ccc4cc[nH]c4c3)nc2cc1C(F)(F)F [Compound 552]
3. O=C(Nc1ccc2cc[nH]c2c1)Nc1ccc(N2CCC(F)(F)CC2)cn1 [Compound 249]
4. N#Cc1ccc(OC2CCC(NC(=O)Nc3ccc4cc[nH]c4c3)CC2)cc1 (stereo not drawn) [Compound 195]

RESULT:
1: 1 to 5 µM; 2: 0.2 to 1 µM; 3: 1 to 5 µM; 4: 1 to 5 µM
